# TARGET_DESC: voltage-gated sodium channel, site 2 (Rattus norvegicus, UniProt F1LQQ7+O08562+O88420+O88457+P04774+P04775+P08104+P15389+P15390+Q62968)
# TEST_SUMMARY: Inhibition of Sodium Channel, Site 2 at 10 µM in the Eurofins-Panlabs radioligand binding assay (Eurofins_assay_279510)
# Assay type: protein assay
# Design: ligand concentration 5 nM, non-specific ligand with concentration 100 µM Veratridine, incubation time 60 min, incubation temperature 37 °C
# RUN_PARAMETERS: male, Wistar, rat whole brain (except cerebellum) membranes, probe [3H] Batrachotoxinin, compound concentration 10 uM
EXPERIMENTAL_READOUT: inhibition at 60 min, 10 µM
Field note: include the unit after the figure.

Identify the reported inhibition at 60 min, 10 µM for the following entry. `O=C(N1CCS(=O)(=O)CC1)N1C[C@H](c2ccc(OC(F)(F)F)cc2)C[C@H](c2nc(C3CC3)no2)C1` 55%

###

# TARGET_DESC: hERG (KCNH2) (Homo sapiens, UniProt Q12809)
# Sequence (Q12809 whole entry): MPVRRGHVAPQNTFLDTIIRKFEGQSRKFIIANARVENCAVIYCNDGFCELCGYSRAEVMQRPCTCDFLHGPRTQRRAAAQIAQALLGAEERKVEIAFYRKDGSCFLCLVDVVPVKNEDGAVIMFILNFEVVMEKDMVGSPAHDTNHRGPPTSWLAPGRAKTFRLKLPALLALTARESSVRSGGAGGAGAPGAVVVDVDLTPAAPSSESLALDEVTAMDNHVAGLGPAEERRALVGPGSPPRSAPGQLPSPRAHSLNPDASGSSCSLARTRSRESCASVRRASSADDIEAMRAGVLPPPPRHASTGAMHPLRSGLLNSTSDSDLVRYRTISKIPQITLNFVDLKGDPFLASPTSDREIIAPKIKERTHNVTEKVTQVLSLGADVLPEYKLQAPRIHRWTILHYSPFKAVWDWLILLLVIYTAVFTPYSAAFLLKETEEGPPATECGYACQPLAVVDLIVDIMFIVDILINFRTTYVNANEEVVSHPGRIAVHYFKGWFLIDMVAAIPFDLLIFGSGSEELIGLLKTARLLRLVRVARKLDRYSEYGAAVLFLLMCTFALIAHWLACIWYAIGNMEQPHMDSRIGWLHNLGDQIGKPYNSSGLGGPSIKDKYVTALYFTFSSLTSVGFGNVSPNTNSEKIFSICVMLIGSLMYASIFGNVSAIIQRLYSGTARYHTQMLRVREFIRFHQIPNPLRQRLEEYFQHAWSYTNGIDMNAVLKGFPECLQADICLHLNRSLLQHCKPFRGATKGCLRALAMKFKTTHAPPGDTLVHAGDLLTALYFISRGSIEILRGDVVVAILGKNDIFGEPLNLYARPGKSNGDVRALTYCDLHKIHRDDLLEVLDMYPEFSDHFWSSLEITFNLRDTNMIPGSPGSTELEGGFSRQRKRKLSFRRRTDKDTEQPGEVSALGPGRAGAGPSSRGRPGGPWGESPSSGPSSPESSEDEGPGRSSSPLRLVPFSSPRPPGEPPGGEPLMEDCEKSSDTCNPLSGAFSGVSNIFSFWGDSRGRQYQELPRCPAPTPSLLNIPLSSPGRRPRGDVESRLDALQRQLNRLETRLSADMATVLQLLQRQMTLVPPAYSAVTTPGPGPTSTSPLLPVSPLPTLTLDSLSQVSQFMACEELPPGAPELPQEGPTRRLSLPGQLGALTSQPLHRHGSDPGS
# TEST_SUMMARY: Inhibition of Potassium Channel hERG at 10 µM in the Eurofins-Panlabs radioligand binding assay (Eurofins_assay_265900)
# Parameters: ligand concentration 1.5 nM, non-specific ligand with concentration Astemizole, incubation time 60 min, incubation temperature 25 °C
# RUN_PARAMETERS: HEK-293 cells that express human recombinant hERG, probe [3H] Astemizole, compound concentration 10 uM
EXPERIMENTAL_READOUT: inhibition at 60 min, 10 µM

Give the value of inhibition at 60 min, 10 µM reported for the following: `O=C(N1CCS(=O)(=O)CC1)N1C[C@H](c2ccc(OC(F)(F)F)cc2)C[C@H](c2nc(C3CC3)no2)C1` 22% (not active)
